Where these numbers come from: patent US20190135887A1

experiment: Solubility in water by visual observation; type: physicochemical; settings: dissolution in water to reach 100 μM
Measured attribute: solubility

{"Smi": "CSCC[C@H](NC(=O)[C@H](C)NC(=O)[C@H](CCC(N)=O)NC(=O)[C@@H]1CCCN1C(=O)[C@@H](NC(=O)[C@H](Cc1c[nH]c2ccccc12)NC(=O)[C@H](CC(N)=O)NC(=O)CCC(F)(F)C(F)(F)C(F)(F)C(F)(F)C(F)(F)C(F)(F)C(F)(F)C(F)(F)F)[C@@H](C)O)C(=O)N[C@@H](CC(C)C)C(=O)N[C@@H](Cc1ccc(O)cc1)C(=O)N[C@@H](CC(C)C)C(=O)N[C@@H](CCCCN)C(=O)NCC(=O)N[C@@H](C)C(=O)N[C@@H](CCC(N)=O)C(N)=O", "Measured": "> 100 µM"}

----------
assay: Human plasma stability; type: in vitro ADME; conditions: 37° C., 2 h incubation, read-out: Human plasma stability (t1/2)
This section presents compounds with their documented half-life at 1 μM values.

{"Compound": "CSCC[C@H](NC(=O)[C@H](C)NC(=O)[C@H](CCC(N)=O)NC(=O)[C@@H]1CCCN1C(=O)[C@@H](NC(=O)[C@H](Cc1c[nH]c2ccccc12)NC(=O)[C@@H](N)CC(N)=O)[C@@H](C)O)C(=O)N[C@@H](CC(C)C)C(=O)N[C@@H](Cc1ccc(O)cc1)C(=O)N[C@@H](CC(C)C)C(=O)N[C@@H](CCCCN)C(=O)NCC(=O)N[C@@H](C)C(=O)N[C@@H](CCC(N)=O)C(N)=O [SPEXIN]", "half-life at 1 μM / h": 2.52}
{"Compound": "CSCC[C@H](NC(=O)[C@H](C)NC(=O)[C@H](CCC(N)=O)NC(=O)[C@@H]1CCCN1C(=O)[C@@H](NC(=O)[C@H](Cc1c[nH]c2ccccc12)NC(=O)[C@H](CC(N)=O)NC(=O)CCC(F)(F)C(F)(F)C(F)(F)C(F)(F)C(F)(F)C(F)(F)C(F)(F)C(F)(F)F)[C@@H](C)O)C(=O)N[C@@H](CC(C)C)C(=O)N[C@@H](Cc1ccc(O)cc1)C(=O)N[C@@H](CC(C)C)C(=O)N[C@@H](CCCCN)C(=O)NCC(=O)N[C@@H](C)C(=O)N[C@@H](CCC(N)=O)C(N)=O [LE-144]", "half-life at 1 μM / h": 2.5}

----------
experiment: Solubility in water by visual observation; assay type: physicochemical; conditions: dissolution in water to reach 100 μM

{"Smi": "CSCC[C@H](NC(=O)[C@H](C)NC(=O)[C@H](CCC(N)=O)NC(=O)[C@@H]1CCCN1C(=O)[C@@H](NC(=O)[C@H](Cc1c[nH]c2ccccc12)NC(=O)[C@@H](N)CC(N)=O)[C@@H](C)O)C(=O)N[C@@H](CC(C)C)C(=O)N[C@@H](Cc1ccc(O)cc1)C(=O)N[C@@H](CC(C)C)C(=O)N[C@@H](CCCCN)C(=O)NCC(=O)N[C@@H](C)C(=O)N[C@@H](CCC(N)=O)C(N)=O", "solubility at 2 min": "> 100 µM"}
